# measured-on: benzodiazepine receptors
# test-method-notes: Affinity for benzodiazepine receptors: inhibition of specific binding of [3H]flunitrazepam (WASTEK et al., modified)
# Set-up: species or system rats
# condition-summary: 50% inhibition of specific binding of [3H]flunitrazepam, rat brain membranes
Form field: log10(IC50) (one value per entry).
readout-label: log10(IC50) (log10 of the value in nM)

compound	data-value
CCOC(=O)c1cnc2ccc([N+](=O)[O-])cc2c1NCC(=O)N(CC)CC [Derivative 5]	1.99
CCOC(=O)c1cnc2ccc(Cl)cc2c1NCC(=O)N(C)C [Derivative 29]	2.84
CCCN(C(=O)CNc1c(C(=O)OCC)cnc2ccc(Cl)cc12)c1ccccc1 [Derivative 35]	1.43
CCOC(=O)c1cnc2ccc(Cl)cc2c1NCC(=O)N(C)c1ccccc1 [Derivative 22]	1.15
CCOC(=O)c1cnc2ccc(F)cc2c1NCC(=O)N(CC)CC [Derivative 7]	2.81
CCCN(CCC)C(=O)CNc1c(C(=O)OCC)cnc2ccc(C(F)(F)F)cc12 [Derivative 19]	1.45
CCN(CC)C(=O)CNc1c(C(=O)OCc2ccccc2)cnc2ccc(Cl)cc12 [Derivative 50]	1.43
CCCN(CCC)C(=O)CNc1c(C(=O)OCC)cnc2ccc(OC)cc12 [Derivative 14]	1.23
CCOC(=O)c1cnc2ccc(Cl)cc2c1NCC(=O)N(CC)CC [Derivative 1]	1.93
CCOC(=O)c1cnc2ccc(Cl)cc2c1NCC(=O)N1CCCC(C)C1 (stereo not drawn) [Derivative 38]	1.81
CCOC(=O)c1cnc2ccc(Cl)cc2c1NCC(=O)N1CCCCC1 [Derivative 25]	2.17
CCCN(CCC)C(=O)CNc1c(C(=O)OCC)cnc2ccc(SC)cc12 [Derivative 20]	1.60
CNC1=Nc2ccc(Cl)cc2C(c2ccccc2)=[N+]([O-])C1 [Chlordiazepoxide, chlordiazepoxide, reference compound]	2.98
C#CCN(C)C(=O)CNc1c(C(=O)OCC)cnc2ccc(Cl)cc12 [Derivative 36]	2.00
CCCN(CCC)C(=O)CNc1c(C(=O)OCC)cnc2ccccc12 [Derivative 15]	2.68
CCCN(CCC)C(=O)CNc1c(C(=O)OCC)cnc2ccc(Br)cc12 [Derivative 17]	0.90
CCOC(=O)c1cnc2ccc(OCC)cc2c1NCC(=O)N(CC)CC [Derivative 8]	2.12
CCOC(=O)c1cnc2ccc(OC)cc2c1NCC(=O)N(CC)CC [Derivative 3]	1.74
